Target: human H4 receptor (Homo sapiens (Human), UniProt Q9H3N8)
Sequence (Q9H3N8 whole entry): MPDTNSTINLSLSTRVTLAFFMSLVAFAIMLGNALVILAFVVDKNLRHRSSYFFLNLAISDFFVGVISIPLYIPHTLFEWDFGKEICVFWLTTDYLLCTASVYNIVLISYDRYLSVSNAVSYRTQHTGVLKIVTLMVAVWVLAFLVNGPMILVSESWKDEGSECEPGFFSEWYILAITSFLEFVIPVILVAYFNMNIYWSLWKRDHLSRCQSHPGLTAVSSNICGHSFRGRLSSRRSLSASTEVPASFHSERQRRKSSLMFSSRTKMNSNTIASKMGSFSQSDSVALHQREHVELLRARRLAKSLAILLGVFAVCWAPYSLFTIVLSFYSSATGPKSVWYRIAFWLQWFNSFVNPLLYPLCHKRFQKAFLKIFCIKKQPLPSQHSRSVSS
Experiment: Binding assay on recombinant human histamine H4 receptor ([3H]histamine competition, SK-N-MC cell membranes)
Conditions: membranes harvested with cell harvester; [3H]histamine 10 nM; average of results; read-out: Cell Harvester Ki
Listing of recorded Ki by entry.

{"molecule": "CC1C(Nc2cc(N3CC[C@H](N)C3)ccn2)C[C@H]2C[C@@H]1C2(C)C (stereo partly drawn) [Example 272]", "valueRelationSign": "=", "Ki (µM)": 2.1}
{"molecule": "CN1CCN(c2ccnc(NCCc3ccccc3)n2)CC1 [Example 173]", "valueRelationSign": "=", "Ki (µM)": 0.745}
{"molecule": "CC(C)CNc1nccc(N2CC[C@@H](N)C2)n1 [Example 23]", "valueRelationSign": "=", "Ki (µM)": 0.0027}
{"molecule": "c1cc(N2C[C@H]3CCN[C@H]3C2)cc(NC23CC4CC(CC(C4)C2)C3)n1 [Example 296]", "valueRelationSign": "=", "Ki (µM)": 0.0642}
{"molecule": "COCCNc1cc(N2CC(N)C2)cnn1 [Example 335]", "valueRelationSign": ">", "Ki (µM)": 10}
{"molecule": "CN[C@H]1CCN(c2cnnc(NCC3CC4CCC3C4)c2)C1 (stereo partly drawn) [Example 374]", "valueRelationSign": "=", "Ki (µM)": 0.298}
{"molecule": "COCCNc1nccc(N2C[C@H]3CCN[C@H]3C2)n1 [Example 140]", "valueRelationSign": "=", "Ki (µM)": 0.135}
{"molecule": "CN[C@@H]1CCN(c2cnnc(NCc3ccccc3)c2)C1 [Example 397]", "valueRelationSign": "=", "Ki (µM)": 0.353}
{"molecule": "CN[C@@H]1CCN(c2ccnc(NC3CCOCC3)c2)C1 [Example 222]", "valueRelationSign": "=", "Ki (µM)": 0.0673}

Each recorded value in this set is attributed to patent US9732087B2.
